Let's look at some substances and their measured Ki.
target: human thrombin (Homo sapiens); construct: Human α-thrombin (3,000 NIH units/mg); purchased Sigma; assay: Inhibition of amidolytic activity of human thrombin (fluorogenic, Tos-Gly-Pro-Arg-AMC), Ki; type: biochemical; conditions: Table III, various linker segments; human thrombin 3.0×10^-11 M; read-out: Ki

Worked examples, 2 substances total:
dansyl-Arg-(D-Pipecolic acid)-(7-aminoheptanoic acid)-glycyl)-Asp-Phe-Glu-Glu-Ile-Pro-Glu-Glu-Tyr-Leu-Gln-OH (RXXGDFEEIPEEYLQ; dansyl, D-pipecolic acid, aminoheptanoic acid-glycyl linker) [Peptide P524]; 1480 nM
dansyl-Arg-(D-Pipecolic acid)-(8-aminocaproicacid)-4-aminobutyric acid)-Asp-Phe-Glu-Glu-Ile-Pro-Glu-Glu-Tyr-Leu-Gln-OH [Peptide P528]; 0.521 nM

Next up:
Q: Form field: reported Ki of dansyl-Arg-(D-Pipecolic acid)-(4-aminobutyric acid)-glycyl)-Asp-Phe-Glu-Glu-Ile-Pro-Glu-Glu-Tyr-Leu-Gln-OH [Peptide P514]
Result: 6800 nM

###

system: carotid injury-induced thrombosis; assay: FeCl3 induced arterial injury model (carotid injury-induced thrombosis); format: in vivo; details: rat, patency defined by no drop in vessel temperature
measurement.kind: Dose to achieve patency at 60 min.

4-tert-butylbenzenesulfonyl-Arg-(D-pipecolic acid)-(12-aminododecanoic acid)-4-aminobutyric acid)-Asp-Tyr-Glu-Pro-Ile-Pro-Glu-Glu-Ala-(L-β-cyclohexylalanine)-(D- Glu)-OH [Peptide P553]; 0.5-1 mg/kg i.v. bolus

Q: Form field: reported Dose to achieve patency at 60 min. of dansyl-Arg-(D-pipecolic acid)-(12-aminododecanoic acid)-4-aminobutyric acid)-Asp-Phe-Glu-Glu-Ile-Pro-Glu-Glu-Tyr-Leu-Gln-OH [Peptide P448]
Result: > 2 mg/kg i.v. bolus

Q: Try this substance next: 4-tert-Butyl-benzene sulfonyl-Arg-(D-Pipecolic acid)-(12-aminododecanoic acid)-4-aminobutyric acid)-Asp-Phe-Glu-Glu-Ile-Pro-Glu-Glu-Tyr-Leu-Gln-OH [Peptide P552]
Result: ≥ 2 mg/kg i.v. bolus

Q: Try this substance next: 4-bromobenzenesulfonyl-Arg (D-Pipecolic acid)-(12-aminododecanoic acid)-4-aminobutyric acid)- Asp-Phe-Glu-Pro-Ile-Pro-Tyr-OH [BCH-2733]
Result: > 2 mg/kg i.v. bolus

###

Let's look at some substances and their measured pKi.
molecular target: human thrombin (Homo sapiens); construct: Human α-thrombin (3,000 NIH units/mg); purchased Sigma; test: Inhibition of amidolytic activity of human thrombin (fluorogenic, Tos-Gly-Pro-Arg-AMC), Ki; assay type: biochemical; conditions: Table II, various active site inhibitor segments; human thrombin 3.0×10^-11 M; read-out: Ki
Note: pKi values are expressed as the negative base-10 logarithm of concentration in M.

Worked examples, 3 substances total:
dansyl-Arg-1,2,3,4-tetrahydroisoquinoline-3-carboxylic acid-(12-aminododecanoic acid)-4-aminobutyric acid)-Asp-Phe-Glu-Glu-Ile-Pro-Glu-Glu-Tyr-Leu-Gln-OH (RXXXDFEEIPEEYLQ; dansyl-Arg-Tic-aminododecanoic-aminobutyric N-terminal extension) [Peptide P471]; 9.55
dansyl-Phe-(D-Pipecolic acid)-(12-aminododecanoic acid)-4-aminobutyric acid)-Asp-Phe-Glu-Glu-Ile-Pro-Glu-Glu-Tyr-Leu-Gln-OH [Peptide P476]; 8.58
dansyl-Cha-(D-Pipecolic acid)-(12-aminododecanoic acid)-4-aminobutyric acid)-Asp-Phe-Glu-Glu-Ile-Pro-Glu-Glu-Tyr-Leu-Gln-OH [Peptide P477]; 8.23

Next up:
Q: What measured pKi is associated with α-naphthyl sulfonyl-Arg-(D-Pipecolic acid)-(12-aminododecanoic acid)-4-aminobutyric acid)-Asp-Phe-Glu-Glu-Ile-Pro-Glu-Glu-Tyr-Leu-Gln-OH [Peptide P531] on human thrombin (Homo sapiens)?
Result: 10.49
